system: PC3 (human prostate carcinoma) cells; experiment: XTT cytotoxicity assay, PC3 cells; type: cell-based; conditions: Homo sapiens, PC-3, 48 h, read-out: PC3 [IC50 (μM)]
Measured metric: IC50

For the molecule CCCCCCCC/C=C\CCCCCCCC(=O)OCC(COP(=O)([O-])OCC[As+](C)(C)C)OC(=O)CCCCCCC/C=C\CCCCCCCC (stereo not shown) [Compound 311] , what IC50 is on record?
> 100 µM

###

# MIC, fungus H per record follows
test system: Cryptococcus neoformans ATCC 90112; assay: Anti-fungal broth microdilution (MIC), fungus H; type: cell-based; conditions: yeast protocol, more than 80% inhibition, 48 h
Kindly answer with a numeric value in µg/mL, unit omitted.

Would you please look over these solved cases?
{"Compound": "CCCCCCCCCCCCCCCCOP(=O)([O-])OC1CC[N+](C)(Cc2ccccc2)CC1 (centres unmarked)", "Measurement unit": "µg/mL", "MIC, fungus H": 1.5}
{"Compound": "CCCCCCCCCCCCCCCCOP(=O)([O-])OCC[N+]12CCC(CC1)CC2", "Measurement unit": "µg/mL", "MIC, fungus H": 1.5}
{"Compound": "CCCCCCCCCCCCCCCCOP(=O)([O-])OCC[N+]1(C)CCCCC1", "Measurement unit": "µg/mL", "MIC, fungus H": 1.5}
{"Compound": "CCCCCCCC/C=C\\CCCCCCCCCCCCOP(=O)([O-])OCC[N+](C)(C)C [ErPC, (13Z)-docosenylphosphocholine, reference compound]", "Measurement unit": "µg/mL", "MIC, fungus H": 4}

Can you share its MIC, fungus H? I mean this compound: CCCCCCCCCCCCCCCCCCOP(=O)([O-])OCC[As+](C)(C)C
1.5
